Origin of measurements: patent US3985779A

system: Kaolin-induced edema; assay: Inhibitory activity on Kaolin-induced Edema in Rats (Experiment B); type: in vivo; conditions: after 7 hrs; oral 8 mg/kg
Property: Edema D. ± S.E.

Molecule: CC(C(=O)O)c1cccc(Oc2ccccc2Cl)c1 (stereo not shown) [Compound (5)]
Observed: .563 ± .060
//
Molecule: CC(C)Cc1ccc(C(C)C(=O)O)cc1 (stereo not shown) [Ibuprofen, 2,4'-isobutylphenylpropionic acid, reference compound]
Observed: .571 ± .046
//
Molecule: CC(C(=O)O)c1cccc(Oc2ccc(Cl)cc2)c1 (stereo not shown) [(4)]
Observed: .625 ± .040
//
Molecule: CC(C(=O)O)c1cccc(Oc2ccccc2)c1 (stereo not shown) [Compound (2), reference compound]
Observed: .612 ± .067
